Data credit: ChEMBL document CHEMBL5034015

# TARGET_ENTITY: Induced myeloid leukemia cell differentiation protein Mcl-1 (Homo sapiens, UniProt Q07820)
# Sequence (Q07820 whole entry, the tested form may be a part): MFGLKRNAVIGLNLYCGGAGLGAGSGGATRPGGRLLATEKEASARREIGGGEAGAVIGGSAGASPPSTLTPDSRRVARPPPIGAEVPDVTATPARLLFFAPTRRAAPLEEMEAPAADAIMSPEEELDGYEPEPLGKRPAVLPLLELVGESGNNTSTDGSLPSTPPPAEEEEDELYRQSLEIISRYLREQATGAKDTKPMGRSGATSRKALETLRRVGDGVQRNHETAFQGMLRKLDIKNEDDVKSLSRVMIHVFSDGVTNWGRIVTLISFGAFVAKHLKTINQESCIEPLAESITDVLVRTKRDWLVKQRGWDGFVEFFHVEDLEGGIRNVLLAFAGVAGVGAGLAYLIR
# ASSAY_COMMENT: Binding affinity to 15N-labeled human MCL1 (172 to 327 residues) expressed in Escherichia coli BL21 (DE3) assessed as chemical shift at M231 residue at 0.3 mM incubated for 1 hr by 15N HSQC NMR spectroscopy analysis
Active and inactive are the calls of the source. The calls are words filed in the database; no cut-off is given here.
OBSERVED_PROPERTY: Activity

O=[N+]([O-])c1ccc(Oc2ccc(O)c(O)c2)c(-c2ccsc2S(=O)(=O)N2CCN(C(=S)Nc3cc(C(F)(F)F)cc(C(F)(F)F)c3)CC2)c1 | Active
CC(C)c1ccc(Oc2ccc(O)c(O)c2)c(-c2ccsc2S(=O)(=O)NCCNC(=S)Nc2cc(C(F)(F)F)cc(C(F)(F)F)c2)c1 | Active
Cc1nn(C)c(COc2ccc(N3CCN(S(=O)(=O)N(C)C)CC3)cc2)c1-c1cccc2c(CCCOc3cccc4ccccc34)c(C(=O)O)n(CCN3CCOCC3)c12 | Active
Cc1ccc(-c2ccsc2S(=O)(=O)NCCNC(=O)Nc2cc(C(F)(F)F)cc(C(F)(F)F)c2)c(Oc2ccc(O)c(O)c2)c1 | Active
